The reported measurements were obtained from paper doi:10.1101/382226v2.

# tested-on: NOX4 (Homo sapiens)
# Sequence (Q9NPH5 whole entry): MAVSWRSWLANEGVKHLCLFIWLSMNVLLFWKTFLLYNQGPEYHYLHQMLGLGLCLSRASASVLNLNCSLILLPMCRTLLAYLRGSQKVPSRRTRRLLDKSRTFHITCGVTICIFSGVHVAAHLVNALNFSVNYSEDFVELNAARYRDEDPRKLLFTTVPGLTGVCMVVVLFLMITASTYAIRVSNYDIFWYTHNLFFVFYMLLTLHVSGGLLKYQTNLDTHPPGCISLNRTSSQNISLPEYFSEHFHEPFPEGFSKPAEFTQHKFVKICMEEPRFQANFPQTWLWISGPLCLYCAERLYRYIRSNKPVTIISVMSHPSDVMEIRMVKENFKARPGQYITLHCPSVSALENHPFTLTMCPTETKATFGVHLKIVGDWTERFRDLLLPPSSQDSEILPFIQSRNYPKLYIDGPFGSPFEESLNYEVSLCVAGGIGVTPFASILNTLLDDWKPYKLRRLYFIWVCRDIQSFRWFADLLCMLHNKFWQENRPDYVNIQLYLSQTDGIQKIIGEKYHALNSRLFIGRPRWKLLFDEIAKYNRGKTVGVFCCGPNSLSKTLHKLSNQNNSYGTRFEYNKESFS
# Sequence (P13498 2-195 partner): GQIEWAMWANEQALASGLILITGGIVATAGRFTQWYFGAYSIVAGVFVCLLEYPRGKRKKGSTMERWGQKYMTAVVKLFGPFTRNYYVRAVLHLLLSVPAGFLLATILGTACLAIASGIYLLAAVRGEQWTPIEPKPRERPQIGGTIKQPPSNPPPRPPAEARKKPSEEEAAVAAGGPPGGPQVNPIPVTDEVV
# test-method-notes: Amplex Red/HRP H2O2 fluorescence, intact transfected HEK293 cells
reported-property: pIC50
The read-out pIC50 is expressed as -log10 of concentration in moles per litre.

I'd like to know its pIC50. The compound in question is c1ccc2c(c1)Nc1nc3ccccc3nc1N2 [ML090] 7.69
